test system: RXF 393 renal; assay: NCI tumour cell line growth inhibition, 48 h
Listing of entries alongside the reported TGI.
Just the number in µM, nothing appended.

Here are 3 compounds together with their reported answers.
CC(C)OC(=S)Nc1ccc(Cl)c(/C=N/OC(C)(C)C)c1	30.9
C=C1C(C)C2C(Cc3ccccc3)NC(=O)C23OC(=O)/C=C\CC(=O)CCC(C)C/C=C/C3C1O (stereo not given)	1.42
COc1ccc(C)cc(=O)c1O	90

Next compound, TGI to be filled in.
Consider the compound "CCCc1cc(=O)n2c(C(=O)Nc3ccc(F)cc3)c(C(=O)Nc3ccc(F)cc3)sc2n1" and give its measured TGI.
13

====

tested on: UO-31 renal; assay: NCI tumour cell line growth inhibition, 48 h
Listing of entries alongside the reported TGI.

Here are 8 compounds together with their reported answers.
CC(C)CCOC(=O)NC(Nc1ccc(F)cc1)(C(F)(F)F)C(F)(F)F	36.5 µM
Cc1ccc2nc(NC(=O)C(=O)C(C#N)c3ccc(Cl)cc3)sc2c1 (stereo unspecified)	> 50 µM
O=[N+]([O-])c1ccc(Cl)c(CNc2ncnc3c2ncn3C2CCCCO2)c1 (stereo unspecified)	> 100 µM
N#CC1=C(N)Oc2c(ccc3ccccc23)C1c1cc(=O)oc2ccc(Cl)cc12 (stereo unspecified)	> 100 µM
Cc1ccc(NC(=O)C(=O)CC(=O)c2c(C)n([O-])c3ccccc3[n+]2=O)cc1C	> 100 µM
COC(=O)Nc1nc2ccc(NC(=O)c3ccc(I)cc3)cc2[nH]1	> 100 µM
COC1=CC(=O)N(C)C(O)C1(C#N)OC1OC(CO)C(O)C(O)C1O (stereo unspecified)	> 100 µM
CCCCCCCC1(c2ccc(N)cc2)CCC(=O)NC1=O (stereo unspecified)	74.8 µM

Consider the compound "Oc1ccc(-c2nc3ccccc3s2)cc1" and give its measured TGI.
> 100 µM

For "CC1=C(C(=O)Nc2ccccc2)C(c2ccccc2Cl)C(C(=O)Nc2ccccc2)=C(C)N1" then?
84.4 µM

For "COc1ccc(C)cc(=O)c1O" then?
> 100 µM

====

Listing of entries alongside the reported TGI.
system: HOP-62 NSCLC; assay: NCI tumour cell line growth inhibition, 48 h

CCN(CC)CC1CCCCN1CC(=O)N1CC(C)C(=O)Nc2ccccc21 (stereo not given)	> 100 µM

Please provide the recorded TGI for "O=C(Nc1nn[nH]n1)c1nc(-c2ccccc2)cc(=O)[nH]1" , tested on HOP-62 NSCLC.
> 100 µM

For O=[N+]([O-])c1ccc(Cl)c(CNc2ncnc3c2ncn3C2CCCCO2)c1 (stereo not given) then?
> 100 µM

For "CC(C)Oc1cccc(N2C(Nc3ccccc3)=Nc3ccncc3S2(=O)=O)c1" then?
> 100 µM

For CCCCCC(O)C(O)CCC[C@H](O)[C@H]1CC[C@H]([C@H]2CC[C@H]([C@H](O)CCCCCCCCCCCCC3=C[C@H](C)OC3=O)O2)O1 (stereo not given in full) then?
32 µM

For "OC(NN=C1CCCC1)(C(F)(F)Cl)C(F)(F)Cl" then?
> 10 µM

For CCOC1=C(c2ccccc2)N2CCCCC2O1 (stereo not given) then?
17.6 µM

For "ClCc1ccccc1Cn1cnc2ncnc(Cl)c21" then?
29 µM

For "O=C(O)/C=C\C(=O)Nn1c(Cc2ccc(Cl)cc2)n[nH]c1=O" then?
> 100 µM

For C[C@H](C1CC2(C)OC2(C)C(=O)O1)[C@H]1CC[C@H]2[C@@H]3[C@@H]4O[C@@H]4[C@@]4(O)CC=CC(=O)[C@]4(C)[C@H]3CC[C@]12C (stereo not given in full) then?
> 50 µM

For "NC(=S)NC/C=C/Cl" then?
> 100 µM

Cited source for all entries: PubChem BioAssay (NCI)
